Tested on: PfAP2-G AP2 domain (GST-tagged)
protocol text: gcPBM binding intensity (ln(normalized median fluorescence intensity)); higher = stronger DNA binding
Whole data set: some 25,000 sequences, median “ln(normalized median fluorescence intensity)” near 10, cut for the highest 2% near 12. This is one part of a sample in which the highest values are shown more often than they occur.
Each entry below carries its recorded gcPBM binding intensity (ln).
reported metric: gcPBM binding intensity (ln)

residue sequence | subject of test | observed
AAAATTATTAAATATGTACACACGTACATTTTATAA [CACACA_site8750] | PfAP2-G AP2 domain (GST-tagged) | 11.6
TATATTTTAAAATTATGTACATATATAGATAAATGT [XGTACX_site1349] | PfAP2-G AP2 domain (GST-tagged) | 11.3
AACCACATGGTGTAATGTACATTACCTTAACAATAA [XGTACX_site3055] | PfAP2-G AP2 domain (GST-tagged) | 10.7
AATATTTTTAATTAATGTACATATTTATTATATAAA [XGTACX_site5112] | PfAP2-G AP2 domain (GST-tagged) | 11.2
ATTTATATTTAATATACACACATTATTTTTTTATAT [CACACA_site574] | PfAP2-G AP2 domain (GST-tagged) | 9.96
GGAAAATGAAAACAAGGTACACATAAGAACAAACAA [XGTACX_site1221] | PfAP2-G AP2 domain (GST-tagged) | 11.4
TTTTTAATCCTTTGCGCATGTAAAATTATATATTTT [TGCATGCA_site306] | PfAP2-G AP2 domain (GST-tagged) | 10.1
TATTAAGTATTTTACGTACACACTTATAAATGTACA [CACACA_site3885] | PfAP2-G AP2 domain (GST-tagged) | 11.7
GAAAACAAAATGGTAACACACAAATGTAAATAGTAT [CACACA_site2113] | PfAP2-G AP2 domain (GST-tagged) | 10.1
ATATTTAAAGAATAAGTGCAAAATGTAATTAATTTT [GTGCAC_site9901] | PfAP2-G AP2 domain (GST-tagged) | 10.1
TCTTACTAATTTATGGGGACTTATCACCTATTCAGT [CACACA_negctrl_site652] | PfAP2-G AP2 domain (GST-tagged) | 10.5
AATAATAGAAAAAGGTGTACTTATAAACATATACAC [XGTACX_site6921] | PfAP2-G AP2 domain (GST-tagged) | 11.5
AATTATTAAATATGTACACACGTACATTTTATAAAT [CACACA_site5341] | PfAP2-G AP2 domain (GST-tagged) | 11.6
AAGGTGGGAAAAAATAGTACACAACAAAAATGTATG [XGTACX_site8741] | PfAP2-G AP2 domain (GST-tagged) | 11.7
TATAATATATTTTAATGTACGTACATCCCGATTAAT [XGTACX_site7651] | PfAP2-G AP2 domain (GST-tagged) | 11.7
AAAAATGAAAGGTGTACACATACAAACATAGAAAGA [CACACA_site5020] | PfAP2-G AP2 domain (GST-tagged) | 11.7
ATAATCCTTGGACACACACACACACTAGTAAATAAA [CACACA_site4423] | PfAP2-G AP2 domain (GST-tagged) | 10.9
TAGTATTATTTTTTTTGTACATATAAATGTAAAATA [XGTACX_site5282] | PfAP2-G AP2 domain (GST-tagged) | 11
AATTTTTTTTTTAGACGTACAAGAAAAAACAAAAAA [XGTACX_site4990] | PfAP2-G AP2 domain (GST-tagged) | 11.7
TTATTAAATATGTACACACGTACATTTTATAAATGA [CACACA_site2387] | PfAP2-G AP2 domain (GST-tagged) | 11.7
AAAAAAAATGAAAGGTGTACACATACAAACATAGAA [XGTACX_site3517] | PfAP2-G AP2 domain (GST-tagged) | 11.7
AGATATTAAAACGTTACACACATTTATATATCTTCT [CACACA_site908] | PfAP2-G AP2 domain (GST-tagged) | 9.74
AATGTTTATTTTGTTTGTACATAAAATGAATAAAAT [XGTACX_site1456] | PfAP2-G AP2 domain (GST-tagged) | 11.1
TTTTTATAAAAATGAACACACACATATATATATATA [CACACA_site9160] | PfAP2-G AP2 domain (GST-tagged) | 10.2
GATCATTTAAAATAAGTAATATTTTTTTTACTTTTG [TGCATGCA_negctrl_site602] | PfAP2-G AP2 domain (GST-tagged) | 9.62
TATAGGTATGTATGTACACACAAAAAATGGAATATA [CACACA_site7704] | PfAP2-G AP2 domain (GST-tagged) | 11.4
GTTATAAAATATGGCACACAAAATGTAAGTAAATGA [CACACA_site1458] | PfAP2-G AP2 domain (GST-tagged) | 10.5
AAAAAAGAAACAAACACACATACATACAAACAAACA [CACACA_site142] | PfAP2-G AP2 domain (GST-tagged) | 10.3
GTTCATAAAAATTTTTGTACCCATAAAATATTCCTC [XGTACX_site8611] | PfAP2-G AP2 domain (GST-tagged) | 11.2

Values from the supplement of paper PMC11417369
